Tested on: Escherichia coli ATCC 25922
test description: Minimum inhibitory concentration (MIC), CLSI broth micro-dilution, E. coli
Format: cell-based
run conditions: Escherichia coli, ATCC25922, Table 6, cation adjusted Mueller Hinton Broth + 0.002% Tween-80, 35° C., 22 hours
Each entry below lists one item and its recorded MIC value.
measurement name: MIC (µM)

compound	reading
CCCCCCc1ccc(C(=O)N2C[C@H](N)CC2C(=O)N(C)[C@@H]2C(=O)N[C@@H](C)C(=O)N[C@H](C(=O)NCC#N)Cc3ccc(OCCN)c(c3)-c3cc2ccc3OCCN)c(C)c1 (mixture of isomers)	2.3
Cc1nc(-c2ccc(C(C)(C)C)cc2)ncc1C(=O)N[C@@H](CNC(=O)CN)C(=O)N(C)[C@@H]1C(=O)N[C@@H](C)C(=O)N[C@H](C(=O)NCC#N)Cc2ccc(OCCN)c(c2)-c2cc1ccc2OCCN (racemic)	3.1

----------
Tested on: Escherichia coli ATCC 25922
test description: Minimum inhibitory concentration (MIC), CLSI broth micro-dilution, E. coli
Format: cell-based
run conditions: Escherichia coli, ATCC25922, 22 h, Table 7, cation adjusted Mueller Hinton Broth + 0.002% Tween-80, 35° C.

compound	measurement unit	MIC
Cc1nc(-c2ccc(C(C)(C)C)cc2)nc(C)c1C(=O)N[C@@H](CNS(N)(=O)=O)C(=O)N(C)[C@@H]1C(=O)N[C@@H](C)C(=O)N[C@H](C(=O)NCC#N)Cc2ccc(OCCN)c(c2)-c2cc1ccc2OCCN (racemic) [Compound 572]	µM	0.28
Cc1nc(-c2ccc(C(C)(C)C)cc2)nc(C)c1C(=O)N[C@@H](CCN)C(=O)N(C)[C@@H]1C(=O)N[C@@H](C)C(=O)N[C@H](C(=O)NCC#N)Cc2ccc(O)c(c2)-c2cc1ccc2OC1CCNCC1 (racemic) [Compound 608]	µM	0.38

----------
Each entry below lists one item and its recorded log10 of MIC value.
Tested on: Escherichia coli ATCC 25922
test description: Minimum inhibitory concentration (MIC), CLSI broth micro-dilution, E. coli
Type: cell-based
run conditions: Escherichia coli, ATCC25922, Table 6, cation adjusted Mueller Hinton Broth + 0.002% Tween-80, 35° C., 22 hours
measurement name: log10 of MIC (log10 of the value in µM)

molecule	log10 of MIC
CCCCCOc1ccc(-c2ncc(C(=O)N[C@@H](CCN)C(=O)N(C)[C@@H]3C(=O)N[C@@H](C)C(=O)N[C@H](C(=O)NCC#N)Cc4ccc(OCCN)c(c4)-c4cc3ccc4OCCN)c(C)n2)cc1 (racemic)	-1.01
Cc1cc(C(C)(C)C)ccc1-c1ccc(C(=O)N[C@@H](CCN)C(=O)N(C)[C@@H]2C(=O)N[C@@H](C)C(=O)N[C@H](C(=O)NCC#N)Cc3ccc(OCCN)c(c3)-c3cc2ccc3OCCN)c(C)n1 (racemic)	-0.46
COCCOc1ccc(-c2nc(C)c(C(=O)N[C@@H](CCN)C(=O)N(C)[C@@H]3C(=O)N[C@@H](C)C(=O)N[C@H](C(=O)NCC#N)Cc4ccc(OCCN)c(c4)-c4cc3ccc4OCCN)c(C)n2)cc1 (racemic)	0.30
Cc1cc(-c2ccc(C(C)(C)C)cc2)ncc1C(=O)N[C@@H](CCN)C(=O)N(C)[C@@H]1C(=O)N[C@@H](C)C(=O)N[C@H](C(=O)NCC#N)Cc2ccc(OCCN)c(c2)-c2cc1ccc2OCCN (racemic)	-0.89
CCCCCCCCc1ccc(C(=O)N[C@@H](CCNS(N)(=O)=O)C(=O)N(C)[C@@H]2C(=O)N[C@@H](C)C(=O)N[C@H](C(=O)NCC#N)Cc3ccc(OCCN)c(c3)-c3cc2ccc3OCCN)c(C)c1 (racemic)	-0.30
CC[C@H](NC(=O)c1c(C)nc(-c2ccc(OC3CCCCC3)cc2)nc1C)C(=O)N[C@@H](CCN)C(=O)N(C)[C@@H]1C(=O)N[C@@H](C)C(=O)N[C@H](C(=O)NCC#N)Cc2ccc(OCCN)c(c2)-c2cc1ccc2OCCN	0.18
CCCCc1ccc(-c2cc(C)c(C(=O)N[C@@H](CCN)C(=O)N(C)[C@@H]3C(=O)N[C@@H](C)C(=O)N[C@H](C(=O)NCC#N)Cc4ccc(OCCN)c(c4)-c4cc3ccc4OCCN)c(C)n2)nc1 (racemic)	-0.51
C[C@@H]1NC(=O)[C@@H](N(C)C(=O)[C@H](CCN)NC(=O)c2cnc(-c3ccc(C(C)(C)C)cc3)nc2OCC(=O)O)c2ccc(OCCN)c(c2)-c2cc(ccc2OCCN)C[C@@H](C(=O)NCC#N)NC1=O (racemic)	0.48
Cc1cc(-c2ccc(C(C)(C)C)cc2)nc(C)c1C(=O)N[C@@H](CCN)C(=O)N(C)[C@@H]1C(=O)N[C@@H](C)C(=O)N[C@H](C(=O)NCC#N)Cc2ccc(OCCN)c(c2)-c2cc1ccc2OCCN (racemic)	-0.70
Cc1nc(Oc2ccc(C(C)(C)C)cc2)nc(C)c1C(=O)N[C@@H](CCN)C(=O)N(C)[C@@H]1C(=O)N[C@@H](C)C(=O)N[C@H](C(=O)NCC#N)Cc2ccc(OCCN)c(c2)-c2cc1ccc2OCCN (racemic)	0.30
Cc1nc(-c2ccc(C(C)(C)C)cc2)ncc1C(=O)N[C@@H](CCNCC(N)=O)C(=O)N(C)[C@@H]1C(=O)N[C@@H](C)C(=O)N[C@H](C(=O)NCC#N)Cc2ccc(OCCN)c(c2)-c2cc1ccc2OCCN (racemic)	0.00
Cc1nc(-c2ccc(OCC(C)(C)C)cc2)ncc1C(=O)N[C@@H](CCN)C(=O)N(C)[C@@H]1C(=O)N[C@@H](C)C(=O)N[C@H](C(=O)NCC#N)Cc2ccc(OCCN)c(c2)-c2cc1ccc2OCCN (racemic)	-1.01
Cc1c(Oc2ccc(C(C)(C)C)cc2)ccc(C(=O)N[C@@H](CCN)C(=O)N(C)[C@@H]2C(=O)N[C@@H](C)C(=O)N[C@H](C(=O)NCC#N)Cc3ccc(OCCN)c(c3)-c3cc2ccc3OCCN)c1C (racemic)	-0.60
C[C@@H]1NC(=O)[C@@H](N(C)C(=O)[C@H](CCN)NC(=O)N2CCC(c3ccc(C(C)(C)C)cc3)CC2)c2ccc(OCCN)c(c2)-c2cc(ccc2OCCN)C[C@@H](C(=O)NCC#N)NC1=O (racemic)	0.90
Cc1nc(-c2ccc(C(C)(C)C)cc2)ncc1C(=O)N[C@@H](CCN)C(=O)N(C)[C@@H]1C(=O)N[C@@H](C)C(=O)N[C@H](C(=O)NCC#N)Cc2ccc(OCCCN)c(c2)-c2cc1ccc2OCCCN (racemic)	-1.02
Cc1nc(-c2ccc(C3(C4CCCC4)CC3)cc2)nc(C)c1C(=O)N[C@@H](CCN)C(=O)N(C)[C@@H]1C(=O)N[C@@H](C)C(=O)N[C@H](C(=O)NCC#N)Cc2ccc(OCCN)c(c2)-c2cc1ccc2OCCN (racemic)	-0.89
Cc1nc(-c2ccc(C(C)(C)C)cc2F)nc(C)c1C(=O)N[C@@H](CCN)C(=O)N(C)[C@@H]1C(=O)N[C@@H](C)C(=O)N[C@H](C(=O)NCC#N)Cc2ccc(OCCN)c(c2)-c2cc1ccc2OCCN (racemic)	-0.42
Cc1nc(C#CC(C)(C)C)ncc1C(=O)N[C@@H](CCN)C(=O)N(C)[C@@H]1C(=O)N[C@@H](C)C(=O)N[C@H](C(=O)NCC#N)Cc2ccc(OCCN)c(c2)-c2cc1ccc2OCCN (racemic)	0.36
